Measured Tm by item
B1: Citrate synthase, mitochondrial, P00889 (parent)
chain: MALLTAAARLFGAKNASCLVLAARHASASSTNLKDILADLIPKEQARIKTFRQQHGNTVVGQITVDMMYGGMRGMKGLVYETSVLDPDEGIRFRGYSIPECQKMLPKAKGGEEPLPEGLFWLLVTGQIPTEEQVSWLSKEWAKRAALPSHVVTMLDNFPTNLHPMSQLSAAITALNSESNFARAYAEGIHRTKYWELIYEDCMDLIAKLPCVAAKIYRNLYREGSSIGAIDSKLDWSHNFTNMLGYTDAQFTELMRLYLTIHSDHEGGNVSAHTSHLVGSALSDPYLSFAAAMNGLAGPLHGLANQEVLVWLTQLQKEVGKDVSDEKLRDYIWNTLNSGRVVPGYGHAVLRKTDPRYTCQREFALKHLPHDPMFKLVAQLYKIVPNVLLEQGKAKNPWPNVDAHSGVLLQYYGMTEMNYYTVLFGVSRALGVLAQLIWSRALGFPLERPKSMSTDGLIKLVDSK

variants of: B1; conditions: Sus scrofa; pH 7.5; Thermal; CD; Tris-HCl 5.0 mM; reversible: yes; structure 1CTS; whole UniProt chain shown

Variant descriptor	Tm
D402Q	69 °C
D402G	62.5 °C
H301G	56 °C
H301R	56.8 °C
